test system: ACHN; assay: Cell growth inhibition by SRB method; type: cell-based, human; conditions: Homo sapiens, ACHN, 72 hrs exposure
IC50 values by entry
MEASURED_ENDPOINT: IC50 (µM)

C#Cc1cccc(Nc2ncnc3cc(OCCOC)c(NC(=O)c4ccc(F)c([N+](=O)[O-])c4)cc23)c1 ... 1.25
C#Cc1cccc(Nc2ncnc3cc(OCCOC)c(OCCOC)cc23)c1 [Tarceva, reference compound] ... 0.625

---

molecular target: EGFR(L861Q) (Homo sapiens, UniProt P00533, L861Q); assay: KinaseSeeker competition binding assay; conditions: 8-point curve, duplicate
Sequence (P00533 25-1210 L861Q): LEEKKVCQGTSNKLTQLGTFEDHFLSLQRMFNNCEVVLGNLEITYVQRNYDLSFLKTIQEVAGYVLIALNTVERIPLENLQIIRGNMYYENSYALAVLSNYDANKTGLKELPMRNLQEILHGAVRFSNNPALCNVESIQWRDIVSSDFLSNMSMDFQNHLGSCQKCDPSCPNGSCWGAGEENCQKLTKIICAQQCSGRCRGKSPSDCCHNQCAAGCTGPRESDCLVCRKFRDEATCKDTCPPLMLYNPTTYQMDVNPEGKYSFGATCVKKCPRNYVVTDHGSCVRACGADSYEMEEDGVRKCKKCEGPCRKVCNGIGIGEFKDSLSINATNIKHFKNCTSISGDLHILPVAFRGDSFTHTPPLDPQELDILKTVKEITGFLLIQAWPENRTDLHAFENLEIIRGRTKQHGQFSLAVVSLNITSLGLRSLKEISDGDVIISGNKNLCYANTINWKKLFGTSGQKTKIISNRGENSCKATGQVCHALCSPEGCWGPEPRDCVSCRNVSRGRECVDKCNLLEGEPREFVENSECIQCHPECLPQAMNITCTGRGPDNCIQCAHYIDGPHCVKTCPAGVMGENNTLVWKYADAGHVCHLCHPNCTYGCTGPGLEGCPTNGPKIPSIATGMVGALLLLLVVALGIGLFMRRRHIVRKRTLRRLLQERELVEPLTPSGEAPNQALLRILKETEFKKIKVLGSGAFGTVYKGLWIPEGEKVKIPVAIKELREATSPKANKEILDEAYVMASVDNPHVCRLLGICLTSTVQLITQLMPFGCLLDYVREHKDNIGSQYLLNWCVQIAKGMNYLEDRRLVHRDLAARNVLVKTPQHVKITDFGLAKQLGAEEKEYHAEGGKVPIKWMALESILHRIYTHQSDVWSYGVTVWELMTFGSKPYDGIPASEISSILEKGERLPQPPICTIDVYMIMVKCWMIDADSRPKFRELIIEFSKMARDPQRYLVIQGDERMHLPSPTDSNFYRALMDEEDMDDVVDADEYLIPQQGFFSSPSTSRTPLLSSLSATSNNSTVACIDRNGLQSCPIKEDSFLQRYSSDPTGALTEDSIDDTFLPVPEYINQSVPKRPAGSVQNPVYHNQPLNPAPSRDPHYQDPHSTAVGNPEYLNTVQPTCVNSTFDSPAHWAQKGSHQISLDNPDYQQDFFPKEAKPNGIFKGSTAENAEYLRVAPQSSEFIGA
MEASURED_ENDPOINT: IC50 (nM)

C#Cc1cccc(Nc2ncnc3cc(OCCOC)c(NC(=O)c4ccc(F)c([N+](=O)[O-])c4)cc23)c1 ... 574
